meta.source: ChEMBL document CHEMBL1128816

target: Acetylcholinesterase (Homo sapiens, UniProt P22303)
Sequence (P22303 whole entry): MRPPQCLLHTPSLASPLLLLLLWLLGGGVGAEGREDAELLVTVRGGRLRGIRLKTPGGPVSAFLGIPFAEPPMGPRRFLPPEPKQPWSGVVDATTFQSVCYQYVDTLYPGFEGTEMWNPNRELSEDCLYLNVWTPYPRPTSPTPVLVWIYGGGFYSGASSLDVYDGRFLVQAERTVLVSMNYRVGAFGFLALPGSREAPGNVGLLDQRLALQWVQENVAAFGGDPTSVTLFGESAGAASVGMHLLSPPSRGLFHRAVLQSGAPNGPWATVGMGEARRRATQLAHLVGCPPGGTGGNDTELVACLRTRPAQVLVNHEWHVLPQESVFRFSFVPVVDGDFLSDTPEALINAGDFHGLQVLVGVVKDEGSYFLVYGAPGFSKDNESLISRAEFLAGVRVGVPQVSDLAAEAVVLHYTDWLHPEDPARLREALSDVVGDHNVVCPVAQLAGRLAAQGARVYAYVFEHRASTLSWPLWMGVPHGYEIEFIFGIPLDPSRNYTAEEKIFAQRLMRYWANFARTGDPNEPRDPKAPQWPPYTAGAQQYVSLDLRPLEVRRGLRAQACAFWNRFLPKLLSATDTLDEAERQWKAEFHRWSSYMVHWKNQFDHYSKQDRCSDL
Quick reference for IC50 among some compounds
All answers are understood in µM, so give the number only.

Q: Recorded IC50 for CN1CC[C@@]2(C)c3cc(OC(=O)NCCCCCCCCN4CCOCC4)ccc3N(C)[C@@H]12 , please?
Result: 0.08

Continue with the compound presented below.
Q: Recorded IC50 for CN1CC[C@@]2(C)c3cc(OC(=O)NCCCCN4CCOCC4)ccc3N(C)[C@@H]12 , please?
Result: 21
